Parameter growth: see the listing below.
Test system: MDA-MB-435 melanoma
Test: NCI-60 one-dose screen, 48 h (100 = growth as untreated, 0 = no growth, -100 = all killed)
Settings: 10 µM unless noted
Compounds without any hit were thinned out: in the full panel of roughly 83,000, 20% have a hit. Active and inactive are the calls of the source. Rule for the calls: active = growth percent below 10; inactive = the rest.

The examples below pair each entry with its known result.
Compound	growth
COc1cc(NC(C)CCCNC2CN3CCC2CC3)c2ncccc2c1 (stereo not drawn)	94.3% (inactive)
CCOC(=O)c1c(C)n(Cc2ccccc2)c2cc(CN(C)C)c(O)cc12	80.3% (inactive)
O=P(Oc1ccc(Cl)cc1)(N1CC1)N1CC1	109% (inactive)
COC(=O)[C@@H](C)C[C@H](Cc1ccccc1)NC(=O)c1cccc([C@@H](C[C@H](C(C)C)N(C)C(=O)[C@@H](NC(=O)[C@H]2CCCCN2C)C(C)C)OC(C)=O)n1	-32.2% (active)
Fc1ccc2c(c1)c(-c1nc(-c3c[nH]c4ncccc34)cs1)cn2CCCCN1CCCCC1	-87.2% (active)

Field request: growth | item: "COC(=O)[C@@H](C)C[C@H](Cc1ccccc1)NC(=O)c1csc([C@@H](C[C@H](C(C)C)N(C)C(=O)[C@@H](NC(=O)C23CC(NC(C)=O)(C2)C3)C2CC2)OC(C)=O)n1"
-16.5% (active)

Which growth value belongs to CC1(C)CN1P(=O)(N1CC1(C)C)N1CC1(C)C (stereo not drawn) ?
124% (inactive)

Look up growth: "CCOC(=O)[C@@H](C)C[C@H](Cc1ccccc1)NC(=O)c1csc([C@@H](C[C@H](C(C)C)N(C)C(=O)CNC(=O)[C@H]2CCCCN2C)OC(C)=O)n1"
-63.8% (active)

----------
Test system: SNB-19 CNS
Test: NCI-60 one-dose screen, 48 h (100 = growth as untreated, 0 = no growth, -100 = all killed)
Settings: 10 µM unless noted
The panel holds about 83,000 compounds, 20% with a hit somewhere; the sample as a whole holds those more often. Activity calls are given as the source filed them. The calls were made as follows: active = growth percent below 10; inactive = the rest.
Parameter measured: growth

Here's what some known entries look like.
Molecule	Parameter measured	Observed measurement
Nc1ccc(OCCNS(=O)(=O)c2cccc(S(=O)(=O)F)c2)c(Cl)c1	growth	96.6% (inactive)
O=[N+]([O-])c1cnc[nH]1	growth	104% (inactive)

What measured growth goes with CCN(CCO)C(Cc1ccccc1)c1ccccc1 (stereo not given) ?
119% (inactive)

Query: growth; subject: "ClCCN(CCCl)c1ccc(/C=N\N=C\c2ccc(N(CCCl)CCCl)cc2)cc1"
69.2% (inactive)

----------
System: UACC-62 melanoma
Test: NCI-60 one-dose screen, 48 h (100 = growth as untreated, 0 = no growth, -100 = all killed)
Settings: 10 µM unless noted
This is part of a sample that, as a whole, favours compounds with a hit. Of some 83,000 tested, about 20% had one in any assay.
Entries and their growth
Please respond with the number in % and leave the unit unwritten.

Recorded results for 4 compounds are shown here.
Compound	Measurement units	growth
C=C(C)[C@@]12OC3(/C=C/C=C/CCCCC)O[C@@H]1[C@@H]1[C@@H]4O[C@]4(CO)[C@@H](O)[C@]4(O)C(=O)C(C)=C[C@H]4[C@@]1(O3)[C@H](C)[C@H]2OC(=O)c1ccccc1	%	59.7
Oc1c(O)c(Cl)c(Cl)c(Cl)c1Cl	%	3.58
Clc1cccc(N2COOC3(OOC2)C2CC4CC(C2)CC3C4)c1	%	93.3
COc1cccc(C=NC(Cc2cnc[nH]2)C(=O)O)c1O (stereo not given)	%	95.6

Please turn your attention to the following entry.
Recorded growth of "C[CH2][Sn]([Cl])([Cl])[CH2]C.Oc1ccccc1C=NCCN=Cc1ccccc1O" , please.
93.8
